B1: SLC2A12 (parent)
chain: LTLVFFVQITGQPNILFYASTVLK

Variants of: B1
Assay: protein stability index of a GFP-peptide fusion (GPS, HEK-293T) (PSI 1-6); higher = more stable;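 further: lentivirally expressed fusions sorted by FACS into six bins by GFP to DsRed ratio, PSI derived from sequencing read proportions per bin multiplied by bin number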
Settings: c terminus: a fixed tail appended
Below, each entry is listed with its recorded protein stability index.
// response body must contain only the number

# example entries with known answers
S20P	2.92
Y18D	2.93
I15F	3.04
K24W	2.76
L3G	2.17
V22P	3.9

Problem: Given the variant K24Y , what is its reported protein stability index?
Result: 4.23

Problem: Moving on to Y18A
Result: 2.49

Problem: Also check F5Y
Result: 2.52

Problem: Field entry: F17M
Result: 2.52

Problem: Same question for L23W please.
Result: 1.83
